Numbers sourced from ChEMBL document CHEMBL4823258.

- Test system: MOLM-13
- Test Details: Cytotoxicity against human MOLM-13 cells assessed as cell growth inhibition incubated for 5 days by CellTiter-Glo luminescence assay
- Assay type: functional, cell-based
- Cond: MOLM-13, 120 h
Reported IC50 values are given for each entry in this list.
The figure you give is taken to be in nM; do not add the unit.

{"columns": ["Molecule Smiles", "Recorded Result"],
 "data": [
  ["COc1ccc(CCc2nc3cc(-c4c(C)noc4C)ccn3c2NC2CCCCC2)cc1Cl", 1740]
]}

Let's switch to this compound now.
# input compound: COc1ccc(CCc2nc3cc(-c4c(C)noc4C)ccc3n2C[C@H](C)N2CCOCC2)cc1Cl ; wanted: its IC50
1530

###

The following are reported pIC50 results, target or system CREB-binding protein (Homo sapiens, UniProt Q92793).
The read-out pIC50 is expressed as -log10 of concentration in moles per litre.

{"columns": ["Molecule Smiles", "Value Type", "Recorded Result"],
 "data": [
  ["Cc1[nH]nc2cc(-c3ccn4c(NC5CCCCC5)c(CCc5ccccc5)nc4c3)ccc12", "pIC50", 5.10]
]}

Let's switch to this compound now.
For CREB-binding protein (Homo sapiens, UniProt Q92793), provide pIC50 of COc1ccc(CCc2nc3cc(-c4c(C)noc4C)ccn3c2NC(C)C)cc1 please.
6.54

###

Reported pKd values are given for each entry in this list.
- Tested System: Histone acetyltransferase p300 (Homo sapiens)
- Sequence (Q09472 whole entry, the tested form may be a part): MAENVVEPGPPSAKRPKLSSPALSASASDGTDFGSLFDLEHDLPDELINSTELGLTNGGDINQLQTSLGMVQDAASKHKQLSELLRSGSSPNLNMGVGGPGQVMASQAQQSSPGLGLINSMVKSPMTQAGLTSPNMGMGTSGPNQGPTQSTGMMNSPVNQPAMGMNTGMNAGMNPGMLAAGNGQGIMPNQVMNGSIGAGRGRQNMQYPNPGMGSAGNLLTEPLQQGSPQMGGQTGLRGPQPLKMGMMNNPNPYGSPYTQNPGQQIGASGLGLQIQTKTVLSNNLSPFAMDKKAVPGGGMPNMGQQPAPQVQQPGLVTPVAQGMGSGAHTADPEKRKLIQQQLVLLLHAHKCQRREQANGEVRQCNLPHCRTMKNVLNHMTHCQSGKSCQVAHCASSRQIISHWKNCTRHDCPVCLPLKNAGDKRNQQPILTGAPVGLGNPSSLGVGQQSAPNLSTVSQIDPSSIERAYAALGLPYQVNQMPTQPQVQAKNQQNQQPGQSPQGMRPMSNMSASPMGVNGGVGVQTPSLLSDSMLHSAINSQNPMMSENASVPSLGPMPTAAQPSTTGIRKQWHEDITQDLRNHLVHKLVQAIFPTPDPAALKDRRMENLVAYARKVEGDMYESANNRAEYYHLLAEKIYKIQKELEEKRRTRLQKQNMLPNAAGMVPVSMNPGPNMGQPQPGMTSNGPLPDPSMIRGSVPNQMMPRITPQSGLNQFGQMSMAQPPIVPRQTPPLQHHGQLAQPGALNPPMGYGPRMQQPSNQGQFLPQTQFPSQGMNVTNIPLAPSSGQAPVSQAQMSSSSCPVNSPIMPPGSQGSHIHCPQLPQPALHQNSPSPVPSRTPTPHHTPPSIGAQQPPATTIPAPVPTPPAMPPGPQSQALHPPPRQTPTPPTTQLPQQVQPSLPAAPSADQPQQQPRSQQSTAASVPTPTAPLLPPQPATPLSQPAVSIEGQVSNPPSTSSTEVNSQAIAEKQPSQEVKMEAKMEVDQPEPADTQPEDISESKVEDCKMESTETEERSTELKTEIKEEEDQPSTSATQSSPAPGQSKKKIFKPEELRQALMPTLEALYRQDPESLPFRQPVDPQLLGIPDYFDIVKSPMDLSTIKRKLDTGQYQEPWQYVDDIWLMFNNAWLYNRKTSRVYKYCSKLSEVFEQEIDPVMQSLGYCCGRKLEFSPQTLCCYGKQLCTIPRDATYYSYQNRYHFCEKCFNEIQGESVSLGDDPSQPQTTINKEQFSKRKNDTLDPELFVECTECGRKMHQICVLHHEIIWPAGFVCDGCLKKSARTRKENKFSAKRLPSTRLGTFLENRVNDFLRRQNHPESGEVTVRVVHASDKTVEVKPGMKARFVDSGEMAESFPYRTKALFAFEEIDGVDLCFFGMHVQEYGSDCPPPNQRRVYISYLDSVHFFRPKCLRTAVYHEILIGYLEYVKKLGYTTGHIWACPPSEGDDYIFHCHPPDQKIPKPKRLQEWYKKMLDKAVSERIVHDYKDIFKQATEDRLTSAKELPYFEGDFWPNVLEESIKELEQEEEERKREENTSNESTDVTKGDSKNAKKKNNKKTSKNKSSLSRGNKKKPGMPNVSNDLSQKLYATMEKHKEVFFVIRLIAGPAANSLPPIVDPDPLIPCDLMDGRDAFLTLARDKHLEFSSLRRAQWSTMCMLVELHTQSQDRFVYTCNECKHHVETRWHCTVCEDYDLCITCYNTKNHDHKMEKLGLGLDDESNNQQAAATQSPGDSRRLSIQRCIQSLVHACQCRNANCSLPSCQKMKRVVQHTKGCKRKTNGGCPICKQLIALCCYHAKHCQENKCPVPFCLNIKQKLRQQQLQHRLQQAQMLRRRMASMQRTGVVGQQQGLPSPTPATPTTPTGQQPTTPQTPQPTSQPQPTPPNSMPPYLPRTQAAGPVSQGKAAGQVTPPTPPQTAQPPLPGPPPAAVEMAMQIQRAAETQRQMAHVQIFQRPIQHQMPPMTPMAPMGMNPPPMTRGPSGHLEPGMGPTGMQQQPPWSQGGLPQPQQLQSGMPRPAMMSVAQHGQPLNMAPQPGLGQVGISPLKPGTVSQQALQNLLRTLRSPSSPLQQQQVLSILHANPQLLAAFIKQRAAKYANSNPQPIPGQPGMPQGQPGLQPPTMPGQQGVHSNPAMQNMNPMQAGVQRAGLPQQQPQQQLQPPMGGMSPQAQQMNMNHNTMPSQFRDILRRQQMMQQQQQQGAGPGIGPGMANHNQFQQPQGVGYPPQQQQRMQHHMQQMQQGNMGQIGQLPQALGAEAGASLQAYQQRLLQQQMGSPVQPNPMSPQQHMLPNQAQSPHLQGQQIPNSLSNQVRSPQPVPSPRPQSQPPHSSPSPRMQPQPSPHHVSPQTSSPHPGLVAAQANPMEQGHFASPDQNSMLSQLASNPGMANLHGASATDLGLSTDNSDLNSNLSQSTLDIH
- Test Details: Binding affinity to human partial length EP300 (A1040 to G1161 residues) expressed in bacterial expression system by BromoELECT assay
The read-out pKd is expressed as -log10 of concentration in moles per litre.

{"columns": ["Molecule Smiles", "Tested System", "pKd"],
 "data": [
  ["Cc1noc(C)c1-c1ccc2nc(-c3ccc(N4CCN(C(=O)CCCC(=O)NCCCOCCOCCOCCCNC(=O)CCCC[C@@H]5SC[C@@H]6NC(=O)N[C@@H]65)CC4)cc3)c(NC3CCCCC3)n2c1", "Histone acetyltransferase p300 (Homo sapiens)", 4.89],
  ["COc1ccc(CCc2nc3cc(-c4c(C)noc4C)ccn3c2NC2CCCCC2)cc1Cl", "Histone acetyltransferase p300 (Homo sapiens)", 6.67]
]}

# input compound: COc1ccc(CCc2nc3cc(-c4c(C)noc4C)ccn3c2NC2CCCCC2)cc1 ; wanted: its pKd
6.55

###

- Tested System: CREB-binding protein (Homo sapiens)
- Test Details: Binding affinity to human partial length CREBBP (R1081 to G1197 residues) expressed in bacterial expression system assessed as melting temperature by differential scanning fluorometry (reference value: 46.7 degreeC)
- Sequence (Q92793 2-2442 limits assumed): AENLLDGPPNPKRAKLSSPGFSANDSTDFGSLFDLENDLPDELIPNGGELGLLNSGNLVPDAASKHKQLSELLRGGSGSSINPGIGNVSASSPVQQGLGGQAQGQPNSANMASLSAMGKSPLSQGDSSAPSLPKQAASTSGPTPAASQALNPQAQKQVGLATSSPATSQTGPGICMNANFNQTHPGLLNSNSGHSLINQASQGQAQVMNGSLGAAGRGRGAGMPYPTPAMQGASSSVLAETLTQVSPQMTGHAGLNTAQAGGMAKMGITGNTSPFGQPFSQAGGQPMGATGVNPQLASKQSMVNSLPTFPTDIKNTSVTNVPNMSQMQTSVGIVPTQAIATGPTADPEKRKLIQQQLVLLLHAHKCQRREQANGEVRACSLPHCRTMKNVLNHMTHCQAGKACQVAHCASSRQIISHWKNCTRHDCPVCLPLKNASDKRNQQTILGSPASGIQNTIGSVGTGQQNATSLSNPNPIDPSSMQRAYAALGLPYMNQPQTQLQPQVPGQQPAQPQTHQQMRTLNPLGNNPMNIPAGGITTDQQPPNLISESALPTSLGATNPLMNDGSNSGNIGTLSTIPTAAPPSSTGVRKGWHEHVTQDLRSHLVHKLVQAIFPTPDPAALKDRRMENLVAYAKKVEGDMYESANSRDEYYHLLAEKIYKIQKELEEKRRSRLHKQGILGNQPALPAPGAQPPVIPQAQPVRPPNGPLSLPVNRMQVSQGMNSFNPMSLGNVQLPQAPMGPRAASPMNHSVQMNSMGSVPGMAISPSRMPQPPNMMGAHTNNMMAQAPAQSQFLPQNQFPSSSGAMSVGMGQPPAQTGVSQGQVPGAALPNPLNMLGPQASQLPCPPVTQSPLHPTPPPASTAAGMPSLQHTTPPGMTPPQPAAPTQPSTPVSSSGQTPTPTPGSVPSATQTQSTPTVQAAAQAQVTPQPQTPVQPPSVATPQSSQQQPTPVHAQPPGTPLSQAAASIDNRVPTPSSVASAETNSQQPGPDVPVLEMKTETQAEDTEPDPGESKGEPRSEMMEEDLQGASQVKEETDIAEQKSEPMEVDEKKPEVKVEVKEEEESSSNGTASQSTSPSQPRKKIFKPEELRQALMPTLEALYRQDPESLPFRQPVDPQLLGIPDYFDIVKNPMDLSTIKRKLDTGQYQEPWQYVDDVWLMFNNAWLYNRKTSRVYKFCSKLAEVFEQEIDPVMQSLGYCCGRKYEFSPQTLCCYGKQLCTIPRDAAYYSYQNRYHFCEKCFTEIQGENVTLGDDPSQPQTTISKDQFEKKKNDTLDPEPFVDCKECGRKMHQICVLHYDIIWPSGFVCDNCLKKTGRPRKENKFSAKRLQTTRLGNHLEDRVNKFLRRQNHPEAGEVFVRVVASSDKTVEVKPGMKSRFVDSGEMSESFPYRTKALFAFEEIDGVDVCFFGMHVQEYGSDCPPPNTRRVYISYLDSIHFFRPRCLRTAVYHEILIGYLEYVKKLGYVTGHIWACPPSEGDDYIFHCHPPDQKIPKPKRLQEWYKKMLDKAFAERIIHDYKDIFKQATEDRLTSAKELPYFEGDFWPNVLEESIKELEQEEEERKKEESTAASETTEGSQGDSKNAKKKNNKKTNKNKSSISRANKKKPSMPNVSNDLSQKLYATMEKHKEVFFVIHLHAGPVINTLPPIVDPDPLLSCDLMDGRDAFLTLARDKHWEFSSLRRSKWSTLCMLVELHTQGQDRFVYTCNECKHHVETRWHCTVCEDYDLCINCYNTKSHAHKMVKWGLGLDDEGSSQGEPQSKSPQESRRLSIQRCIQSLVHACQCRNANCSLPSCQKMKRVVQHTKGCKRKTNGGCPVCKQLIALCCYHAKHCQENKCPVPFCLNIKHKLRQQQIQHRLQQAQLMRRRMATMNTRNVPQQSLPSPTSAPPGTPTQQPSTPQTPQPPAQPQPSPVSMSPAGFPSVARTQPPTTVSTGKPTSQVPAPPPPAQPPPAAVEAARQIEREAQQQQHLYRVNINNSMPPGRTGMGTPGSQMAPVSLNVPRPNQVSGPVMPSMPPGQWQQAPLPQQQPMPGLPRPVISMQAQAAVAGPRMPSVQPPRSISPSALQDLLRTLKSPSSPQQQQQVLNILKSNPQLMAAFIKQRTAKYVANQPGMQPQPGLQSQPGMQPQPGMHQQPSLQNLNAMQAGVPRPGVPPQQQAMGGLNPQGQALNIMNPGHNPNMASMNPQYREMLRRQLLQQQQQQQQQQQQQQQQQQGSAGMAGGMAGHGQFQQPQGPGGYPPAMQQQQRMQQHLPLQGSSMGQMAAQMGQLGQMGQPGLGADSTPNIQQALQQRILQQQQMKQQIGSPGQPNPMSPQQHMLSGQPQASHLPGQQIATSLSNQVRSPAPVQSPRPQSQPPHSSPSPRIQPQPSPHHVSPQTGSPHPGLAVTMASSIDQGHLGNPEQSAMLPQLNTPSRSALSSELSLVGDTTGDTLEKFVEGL
Reported Tm values are given for each entry in this list.
The figure you give is taken to be in °C; do not add the unit.

{"columns": ["Molecule Smiles", "Recorded Result"],
 "data": [
  ["COc1ccc(CCCc2nc3cc(-c4c(C)noc4C)ccn3c2NC2CCCCC2)cc1Cl", 55.2],
  ["Cc1noc(C)c1-c1ccn2c(NC3CCCCC3)c(CCc3ccccc3)nc2c1", 49.2],
  ["COc1ccc(CCc2nc3cc(-c4c(C)noc4C)ccn3c2NC2CCCCC2)cc1Cl", 51.7]
]}

Let's switch to this molecule now.
For CREB-binding protein (Homo sapiens), provide Tm of COc1ccc(CCc2nc3cc(-c4c(C)noc4C)ccn3c2NC2CCCCC2)cc1 please.
51.5
